System Under Test: Neuropeptide Y receptor type 4 (Homo sapiens, UniProt P50391)
Sequence (P50391 whole entry): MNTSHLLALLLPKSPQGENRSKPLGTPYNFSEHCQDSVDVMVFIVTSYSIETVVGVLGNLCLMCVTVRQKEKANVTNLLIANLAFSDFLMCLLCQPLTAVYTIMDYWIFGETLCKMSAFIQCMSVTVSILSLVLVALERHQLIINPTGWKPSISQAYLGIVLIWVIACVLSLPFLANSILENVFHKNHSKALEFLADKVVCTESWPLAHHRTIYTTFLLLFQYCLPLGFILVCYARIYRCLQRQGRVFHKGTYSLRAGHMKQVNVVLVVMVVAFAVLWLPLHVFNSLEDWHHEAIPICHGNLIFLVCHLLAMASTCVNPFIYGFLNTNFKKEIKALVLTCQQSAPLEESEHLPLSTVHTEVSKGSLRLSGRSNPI
Procedure Text: Agonist activity at human Y4R expressed in HEK293T cells by miniGsi assay
Assay type: functional, cell-based
Quantity Kind: EC50 (nM)
Note: unit nM is implicit; provide only the numeric part.

Any idea what its EC50 is? The molecule is CCC(=O)N[C@@H]1CC(=O)NCCCCNC(=O)/N=C(\N)NCCC[C@@H](C(=O)N[C@@H](CC(C)C)C(=O)N[C@@H](CCCNC(=N)N)C(=O)N[C@@H](Cc2ccc(O)cc2)C(N)=O)NC(=O)[C@H](Cc2ccc(O)cc2)NC(=O)[C@H](CCCNC(=N)N)NC1=O 2.6

Could you tell me which EC50 is on file for CCC(=O)N[C@H]1CC(=O)NCCCCNC(=O)/N=C(\N)NCCC[C@@H](C(=O)N[C@@H](CC(C)C)C(=O)N[C@@H](CCCNC(=N)N)C(=O)N[C@@H](Cc2ccc(O)cc2)C(N)=O)NC(=O)[C@H](Cc2ccc(O)cc2)NC(=O)[C@H](CCCNC(=N)N)NC1=O ? 8.1

# query: EC50 of entry CC(C)C[C@H](NC(=O)[C@@H]1CCCN/C(N)=N/C(=O)NCCCCNC(=O)C[C@@H](N)C(=O)N[C@@H](CCCNC(=N)N)C(=O)N[C@@H](Cc2ccc(O)cc2)C(=O)N1)C(=O)N[C@@H](CCCNC(=N)N)C(=O)N[C@@H](Cc1ccc(O)cc1)C(N)=O 0.89

Sample CCC(=O)N[C@@H]1CC(=O)N[C@@H](CCCNC(=N)N)C(=O)N[C@@H](Cc2ccc(O)cc2)C(=O)N[C@H](C(=O)N[C@@H](CC(C)C)C(=O)N[C@@H](CCCNC(=N)N)C(=O)N[C@@H](Cc2ccc(O)cc2)C(N)=O)CCCN/C(N)=N/C(=O)NCCCCNC1=O — what was its EC50? 1.6

Which EC50 is listed for CC(C)C[C@H](NC(=O)[C@@H]1CCCN/C(N)=N/C(=O)NCCCCNC(=O)[C@H](N)CC(=O)N[C@@H](CCCNC(=N)N)C(=O)N[C@@H](Cc2ccc(O)cc2)C(=O)N1)C(=O)N[C@@H](CCCNC(=N)N)C(=O)N[C@@H](Cc1ccc(O)cc1)C(N)=O ? 1.1

For CCC(=O)N[C@H]1CC(=O)N[C@@H](CCCNC(=N)N)C(=O)N[C@@H](Cc2ccc(O)cc2)C(=O)N[C@H](C(=O)N[C@@H](CC(C)C)C(=O)N[C@@H](CCCNC(=N)N)C(=O)N[C@@H](Cc2ccc(O)cc2)C(N)=O)CCCN/C(N)=N/C(=O)NCCCCNC1=O , what is its reported EC50? 3.8

Name the recorded EC50 for CC(C)C[C@H](NC(=O)[C@@H]1CCCN/C(N)=N/C(=O)NCCCCNC(=O)C[C@H](N)C(=O)N[C@@H](CCCNC(=N)N)C(=O)N[C@@H](Cc2ccc(O)cc2)C(=O)N1)C(=O)N[C@@H](CCCNC(=N)N)C(=O)N[C@@H](Cc1ccc(O)cc1)C(N)=O . 4.7

Need EC50, item CC(C)C[C@H](NC(=O)[C@@H]1CCCN/C(N)=N/C(=O)NCCCCNC(=O)[C@H](NC(=O)CCCN)CC(=O)N[C@@H](CCCNC(=N)N)C(=O)N[C@@H](Cc2ccc(O)cc2)C(=O)N1)C(=O)N[C@@H](CCCNC(=N)N)C(=O)N[C@@H](Cc1ccc(O)cc1)C(N)=O 2.5
